Molecular target: LARG-stimulated RhoA nucleotide binding (Homo sapiens, UniProt Q9NZN5)
Sequence (Q9NZN5 765-1138): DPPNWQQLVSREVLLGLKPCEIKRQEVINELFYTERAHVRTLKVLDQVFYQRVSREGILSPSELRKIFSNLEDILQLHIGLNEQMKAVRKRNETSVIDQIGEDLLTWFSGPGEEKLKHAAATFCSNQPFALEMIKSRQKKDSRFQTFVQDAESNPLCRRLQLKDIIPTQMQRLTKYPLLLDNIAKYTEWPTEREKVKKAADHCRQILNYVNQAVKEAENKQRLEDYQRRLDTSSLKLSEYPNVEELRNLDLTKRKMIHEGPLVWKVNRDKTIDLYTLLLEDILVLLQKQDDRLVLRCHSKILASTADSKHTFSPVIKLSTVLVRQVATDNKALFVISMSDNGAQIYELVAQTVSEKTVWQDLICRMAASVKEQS
Assay type: biochemical
Conditions: IC50 (μM) [TR-GTPγS], BODIPY-TR-GTPγS 500 nM, LARG 100 nM, RhoA (C189S) 2 μM, 20 minutes
IC50 values by entry
Response body: numeric value in µM, unit text excluded.

1. O=C1NC(=S)NC(=O)C1=Cc1ccc(-c2ccc(S(=O)(=O)Nc3nccs3)cc2)o1; 3.1

[ask] Bench note: what IC50 did Nc1ccc(O)c(-c2nc3cc(N)ccc3s2)c1 show?
[reply] 10.7

[ask] Bench note: what IC50 did Cc1cccc(NCC(=O)N/N=C\c2c(Br)cc(Br)c(O)c2Br)c1 show?
[reply] 32.2

[ask] Bench note: what IC50 did N=C1S/C(=C\c2ccc(-c3ccccc3[N+](=O)[O-])o2)C(=O)N1c1ccc2c(c1)OCO2 show?
[reply] 39.8

---

IC50 values by entry
Target: LARG-stimulated RhoA [35S] GTPγS binding (Homo sapiens, UniProt Q9NZN5)
Sequence (Q9NZN5 765-1138): as above
Assay: LARG-stimulated RhoA [35S] GTPγS guanine nucleotide binding assay
Assay type: biochemical
Conditions: IC50 (μM) [GTPγS35], LARG 2 nM, RhoA (C189S) 500 nM, 25 minute time point
Response body: numeric value in µM, unit text excluded.

1. O=C1NC(=S)NC(=O)C1=Cc1ccc(-c2ccc(S(=O)(=O)Nc3nccs3)cc2)o1; 7

[ask] Bench note: what IC50 did Cc1cccc(NCC(=O)N/N=C\c2c(Br)cc(Br)c(O)c2Br)c1 show?
[reply] 32.8

[ask] Bench note: what IC50 did N=C1S/C(=C\c2ccc(-c3ccccc3[N+](=O)[O-])o2)C(=O)N1c1ccc2c(c1)OCO2 show?
[reply] 4.6
